src = the METLIN SMRT retention time set (Domingo-Almenara et al. 2019)

experiment: gradient 5% acetonitrile 3 min, to 50% in 2 min, to 85% in 15 min, held 3 min, 100 µL/min
assay_context: column: Zorbax Extend-C18 2.1 x 50 mm; eluents: water / acetonitrile, 0.1% formic acid
# RP-LC retention time >= 700 s gives label 1, anything below gives label 0

Use the examples below as a reference point.
{"compound": "COc1cc(NC(=O)Cn2c(=O)n(-c3ccc(F)cc3)c(=O)c3c2cc(C)n3C)cc(OC)c1", "assigned_label": "label 1"}
{"compound": "COc1ccc(-c2nnc(-c3ccc(C)c(S(=O)(=O)N(C)CC(=O)O)c3)o2)cc1OC", "assigned_label": "label 1"}
{"compound": "Cc1ccc(-c2nc3cnc(Br)cn3c2Nc2ccc3c(c2)OCO3)cc1", "assigned_label": "label 1"}

Now let's try a different one.
Prompt line: Reported RP-LC retention time at or above 700 s? CCCn1c(=O)c2c(C(=O)NCc3ccc(Cl)cc3)cc(=O)n(CCC)c2n(C)c1=O
Response line: label 1

---

experiment: gradient 5% acetonitrile 3 min, to 50% in 2 min, to 85% in 15 min, held 3 min, 100 µL/min
assay_context: column: Zorbax Extend-C18 2.1 x 50 mm; eluents: water / acetonitrile, 0.1% formic acid
# Lookup of reported RP-LC retention time keyed by entry
Please state the figure in s; there is no need to write the unit.

{"compound": "COc1ccc(NC(=O)c2c(OC)cc(=O)n3c2CCCC3)cc1OC", "RP-LC retention time (s)": 628}
{"compound": "C[C@@H]1COC(Nc2ccc3ncnc(Nc4ccc(OCc5nccs5)c(Cl)c4)c3c2)=N1", "RP-LC retention time (s)": 634}
{"compound": "CCc1ccc(-c2cn3cc(C(=O)NCCN4CCN(C)CC4)ccc3n2)cc1", "RP-LC retention time (s)": 573}
{"compound": "COc1ccc(-c2noc(C3CC(=O)N(c4cc(Cl)ccc4OC)C3)n2)cc1OC (stereo not given)", "RP-LC retention time (s)": 884}
{"compound": "O=C(NCc1cccc(Br)c1)c1cn2ccccc2n1", "RP-LC retention time (s)": 730}
{"compound": "Cc1ccc(Nc2c(-c3cccc(Br)c3)nc3cc(C)ccn23)cc1", "RP-LC retention time (s)": 857}
{"compound": "Cn1nc(-c2nc(-c3ccc(F)cc3)no2)c2c1CCN(C(=O)NC1CCCC1)C2", "RP-LC retention time (s)": 771}
{"compound": "COc1ccc(OC)c(S(=O)(=O)N2CCC(c3noc(-c4ccccc4C)n3)CC2)c1", "RP-LC retention time (s)": 1140}

Prompt line: Form field: reported RP-LC retention time of CCOc1cn(-c2ccc(F)cc2)nc1C(=O)NCc1cccs1
Response line: 873

Prompt line: Form field: reported RP-LC retention time of COCCNC(=O)C1CN(S(=O)(=O)c2ccccc2)CC12CCCCC2 (stereo not given)
Response line: 811

Prompt line: Form field: reported RP-LC retention time of COc1cc(O)ccc1-c1nc2cccc(C)n2c1Nc1ccccc1C
Response line: 667

Prompt line: Form field: reported RP-LC retention time of COC(=O)C1C(=O)C2=C(CC1C)NC(C)=C(C(=O)OC(C)C)C2c1ccccc1F (stereo not given)
Response line: 954

Prompt line: Form field: reported RP-LC retention time of CCOC(=O)c1c(C)[nH]c(C(=O)N2CCCC(C(=O)NCCCc3ccccc3)C2)c1C (stereo not given)
Response line: 867

Prompt line: Form field: reported RP-LC retention time of CCCNC(=O)C1CCN(c2cc(SCC(=O)Nc3ccc(C(=O)OCC)cc3)ncn2)CC1
Response line: 781

Prompt line: Form field: reported RP-LC retention time of COc1ccc(S(=O)(=O)N2C[C@H]3CN(C(=O)NCC(C)C)C[C@@H](C2)O3)cc1
Response line: 729
